# Test system: NCI-H226
# Experiment Description: Cytotoxicity against human NCI-H226 cells assessed as cell growth at 10 uM after 48 hrs by SRB assay relative to control
# Format: functional
# Condition Context: NCI-H226, 48 h, read-out: Activity
growth at 10 µM for assorted compounds
Your answer should be a plain number; it is taken to be in %.

# example entries with known answers
| Compound Smiles | Numeric Value |
| --- | --- |
| Cn1cc(C2=C(c3cn(CCCCCC#N)c4ccccc34)C(=O)N(O)C2=O)c2ccccc21 | 77.8 |
| Cn1cc(C2=C(c3cn(CCCCCC(=O)O)c4ccccc34)C(=O)N(O)C2=O)c2ccccc21 | 91.3 |
| CC(C)n1cc(C2=C(c3cn(C)c4ccccc34)C(=O)N(O)C2=O)c2ccccc21 | 77.2 |

For record `Cn1cc(C2=C(c3cn(C)c4ccccc34)C(=O)N(O)C2=O)c2ccccc21` the listed growth at 10 µM is 88.7

###

# System: HCT-116
# Experiment Description: Cytotoxicity against human HCT116 cells assessed as cell growth at 10 uM after 48 hrs by SRB assay relative to control
# Format: functional
# Condition Context: HCT-116, 48 h, read-out: Activity
So basically: is growth at 10 µM under 90%? Then met. Not under? Then not met.

| Compound Smiles | Class Label |
| --- | --- |
| Cn1cc(C2=C(c3cn(C)c4ccccc34)C(=O)N(O)C2=O)c2ccccc21 | not met |
| N#CCCCCCn1cc(C2=C(c3cn(CCCCCC#N)c4ccccc34)C(=O)NC2=O)c2ccccc21 | met |
| Cn1cc(C2=C(c3cn(CCCCCC#N)c4ccccc34)C(=O)N(O)C2=O)c2ccccc21 | met |
| O=C1C2=C(C(=O)N1O)c1cn(c3ccccc13)CCCCCCn1cc2c2ccccc21 | not met |
| CC(C)n1cc(C2=C(c3c[nH]c4ccccc34)C(=O)N(O)C2=O)c2ccccc21 | met |
| Cn1cc(C2=C(c3c[nH]c4ccccc34)C(=O)N(O)C2=O)c2ccccc21 | met |
| CC(C)n1cc(C2=C(c3cn(C)c4ccccc34)C(=O)N(O)C2=O)c2ccccc21 | met |
| O=C(O)CCCCCn1cc(C2=C(c3c[nH]c4ccccc34)C(=O)N(O)C2=O)c2ccccc21 | not met |

-- ask Does this compound meet the criterion growth at 10 µM < 90%? `Cn1cc(C2=C(c3cn(CCCCCC(=O)O)c4ccccc34)C(=O)N(O)C2=O)c2ccccc21`
-- reply not met

###

# Target Of Assay: Dual specificity tyrosine-phosphorylation-regulated kinase 1A (Rattus norvegicus, UniProt Q63470)
# Experiment Description: Inhibition of recombinant rat DYRK1A kinase domain expressed in bacteria using KKISGRLSPIMTEQ as substrate in presence of [gamma-33P]ATP
Measured Property: IC50

Known IC50 results, listed for orientation:
| Compound Smiles | IC50 |
| --- | --- |
| N#CCCCCCn1cc(C2=C(c3cn(CCCCCC#N)c4ccccc34)C(=O)N(O)C2=O)c2ccccc21 | > 10 µM |
| Cn1cc(C2=C(c3c[nH]c4ccccc34)C(=O)N(O)C2=O)c2ccccc21 | > 10 µM |
| N#CCCCCCn1cc(C2=C(c3cn(CCCCCC#N)c4ccccc34)C(=O)NC2=O)c2ccccc21 | 0.62 µM |
| Cn1cc(C2=C(c3cn(C)c4ccccc34)C(=O)N(O)C2=O)c2ccccc21 | > 10 µM |
| O=C1C(c2c[nH]c3ccccc23)=C(c2c[nH]c3ncccc23)C(=O)N1O | > 10 µM |
| CCn1cc(C2=C(c3cn(C(C)C)c4ccccc34)C(=O)N(O)C2=O)c2ccccc21 | > 10 µM |
| O=C1C2=C(C(=O)N1O)c1cn(c3ccccc13)CCCCCCn1cc2c2ccccc21 | > 10 µM |
| CC(C)n1cc(C2=C(c3cn(C)c4ccccc34)C(=O)N(O)C2=O)c2ccccc21 | > 10 µM |

Consider `Cn1cc(C2=C(c3cn(CCCCCC#N)c4ccccc34)C(=O)N(O)C2=O)c2ccccc21` . Its measured IC50 is 5 µM

These data points were gathered from ChEMBL document CHEMBL4229455.
